# credit: patent US8962627B2

# target or test system: human mGluR4 transiently over-expressed in HEK-293 cells (Homo sapiens)
# Construct: expressed in transfected cells; host or cells: HEK-293 cells, transient co-transfection by electroporation
# Sequence (Q14833 33-912): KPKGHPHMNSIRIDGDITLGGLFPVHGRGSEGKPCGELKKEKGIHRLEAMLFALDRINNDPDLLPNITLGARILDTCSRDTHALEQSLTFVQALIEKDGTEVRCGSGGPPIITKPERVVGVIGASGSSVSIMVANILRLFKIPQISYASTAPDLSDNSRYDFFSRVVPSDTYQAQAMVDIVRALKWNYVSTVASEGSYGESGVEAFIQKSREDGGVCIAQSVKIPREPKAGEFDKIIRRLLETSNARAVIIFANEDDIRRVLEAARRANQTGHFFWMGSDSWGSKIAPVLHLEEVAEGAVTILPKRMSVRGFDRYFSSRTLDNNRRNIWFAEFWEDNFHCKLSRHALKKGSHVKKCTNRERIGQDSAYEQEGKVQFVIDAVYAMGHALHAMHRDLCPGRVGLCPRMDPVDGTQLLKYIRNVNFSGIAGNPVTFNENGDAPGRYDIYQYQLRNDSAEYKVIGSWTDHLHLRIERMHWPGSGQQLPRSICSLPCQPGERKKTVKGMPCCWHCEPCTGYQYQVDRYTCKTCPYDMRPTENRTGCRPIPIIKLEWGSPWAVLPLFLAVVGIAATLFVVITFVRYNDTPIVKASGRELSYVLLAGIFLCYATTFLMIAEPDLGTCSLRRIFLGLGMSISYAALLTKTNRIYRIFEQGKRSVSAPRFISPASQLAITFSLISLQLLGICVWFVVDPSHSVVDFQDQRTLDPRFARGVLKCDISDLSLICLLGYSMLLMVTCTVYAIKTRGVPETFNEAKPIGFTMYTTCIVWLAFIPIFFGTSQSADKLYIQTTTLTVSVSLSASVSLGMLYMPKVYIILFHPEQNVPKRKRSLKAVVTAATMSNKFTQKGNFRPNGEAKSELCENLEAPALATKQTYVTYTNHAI
# test details: Human mGluR4 positive allosteric modulator evaluation using Ca++ functional assay
# Type: cell-based
# measurement conditions: HEK-293 cells co-transfected with hmGluR4 and chimeric G protein; EC10 glutamate; intracellular calcium (Fluo4AM); read-out: mean EC50 of agonist/positive allosteric modulator activity on mGluR4
# Source text: Human mGluR4 Positive Allosteric Modulator Evaluation Using Ca^++ Functional Assay […] Receptor activity was detected by changes in intracellular calcium measured using the fluorescent Ca^2+ sensitive dye, Fluo4AM (Molecular Probes). […] Agonist and positive allosteric modulator activities of compounds were consecutively evaluated on the same cells plate. […] Then, the cells were stimulated by an EC10 glutamate concentration and fluorescence recorded for additional 60 s. […]
pEC50: −log10 of the molar value. Structures can show the parent of a compound that is named as a salt.
parameter: pEC50

Sample C=CC#Cc1ccc2c(=NO)cc(-c3cc4ccccc4cn3)oc2c1 (mixture of isomers) [Example 55] — what was its pEC50?
> 5.30

Dear colleague, I am looking for the recorded pEC50 of the following compound: Cl.ON=c1cc(-c2cc3cccn3cn2)oc2ccc(OCCN3CCCC3)cc12 [Example 87, hydrochloride]
> 5.30

Please report the recorded pEC50 for Cl.ON=c1cc(-c2cc3ccsc3cn2)oc2ccc(OCCN3CCOCC3)cc12 [Example 158, hydrochloride] .
> 6.00

For ON=c1cc(-c2cc3cccn3cn2)oc2cc(OCCCN3CCOCC3)ccc12 [Example 143, hydrochloride] , what is its reported pEC50?
> 6.00

Consider the compound shown here: C#Cc1ccc2c(=NO)cc(-c3cc4ccccc4cn3)oc2c1 (mixture of isomers) [Example 23] What is its recorded pEC50?
> 6.00

Suppose we examine the compound ON=c1cc(-c2cc3nccn3cn2)oc2ccccc12 (mixture of isomers) [Example 73] ; what pEC50 value has been reported?
> 6.00

Using the record for CC1CCCN1CCOc1ccc2oc(-c3cc4cccn4cn3)cc(=NO)c2c1 (stereo not shown) [Example 92, hydrochloride] , report its pEC50.
> 5.30

Field request: pEC50 | item: COC[C@@H]1CCCN1CCOc1ccc2oc(-c3cc4cccn4cn3)cc(=NO)c2c1.Cl [Example 96, hydrochloride]
> 6.00

What pEC50 value was documented for this compound, ON=c1cc(-c2cc3cc(Br)cn3cn2)oc2ccccc12 [Example 65] ?
> 5.30

Return reported pEC50; argument: ON=c1cc(-c2cc3cccn3cn2)oc2ccc(OCCCOc3cccnc3)cc12 [Example 149]
> 6.00

Would you mind telling me what pEC50 value was observed for Cl.ON=c1cc(-c2cn3cccc3cn2)oc2ccc(OCCN3CCC(F)(F)CC3)cc12 [Example 124, hydrochloride] ?
> 6.00

Which value of pEC50 has been reported for ON=c1cc(-c2cc3cccn3cn2)oc2ccc(OCCN3CCC(F)(F)CC3)cc12 [Example 103, hydrochloride] in the records?
> 6.00

Data request, read-out pEC50, for ON=c1cc(-c2cc3cccn3cn2)oc2ccc(OCCOc3ccncc3)cc12 [Example 147]
> 6.00

Given the compound COc1ccc(C#Cc2ccc3c(=NO)cc(-c4cc5ccccc5cn4)oc3c2)cc1 (mixture of isomers) [Example 31] , what is its reported pEC50?
> 5.30

Dear colleague, I am looking for the recorded pEC50 of the following compound: ON=c1cc(-c2cc3cccn3cn2)oc2ccc(Br)cc12 (mixture of isomers) [Example 66]
> 5.30

Value lookup for pEC50; key = Cl.Cl.ON=c1cc(-c2cc3cccn3cn2)oc2ccc(OCCN3CCC(N4CCCC4)CC3)cc12 [Example 118, dihydrochloride]
> 6.00

----------
parameter: melting point

What value of measured melting point is listed for Cl.ON=c1cc(-c2cc3sccc3cn2)oc2ccc(OCCN3CCCC(F)(F)C3)cc12 [Example 131] ?
> 250 °C (dec.)

Any idea what melting point was measured for Cl.ON=c1cc(-c2cc3ccsc3cn2)oc2ccc(OCCN3CCOCC3)cc12 [Example 158] ?
258 to 260 °C

So what's the measured melting point for this one? COc1ccc2oc(-c3cc4ccccc4cn3)cc(=NO)c2c1 (mixture of isomers) [Example 42]
250 to 255 °C

What does the data say about its melting point? Entry: ON=c1cc(-c2cc3cccn3cn2)oc2ccc(OCCc3cccc(F)c3)cc12 [Example 138]
205 to 207 °C

Entry ON=c1cc(-c2cc3ccc(F)cc3cn2)oc2ccccc12 [Example 12] : reported melting point = ?
233 to 235 °C

----------
parameter: melting point

Looking for the measured melting point of ON=c1cc(-c2cc3ccccc3cn2)oc2cc(Br)ccc12 (mixture of isomers) , can you help?
279 to 283 °C

Item `CN1CCCN(CCOc2ccc3oc(-c4cc5cccn5cn4)cc(=NO)c3c2)CC1.Cl.Cl` has what recorded melting point?
> 210 °C (dec.)

I'd like to know its melting point. The compound in question is `ON=c1cc(-c2ccc3ccccc3n2)oc2ccccc12`
232 to 235 °C

Endpoint output: melting point of `CN(C)c1ccc2oc(-c3cc4ccccc4cn3)cc(=NO)c2c1` . Value?
223 to 225 °C

Fill in: melting point of `COC[C@H]1CCCN1CCOc1ccc2oc(-c3cc4cccn4cn3)cc(=NO)c2c1.Cl` is ___
210 °C (dec.)

Which measured melting point value corresponds to `ON=c1cc(-c2cc3cccn3cn2)oc2ccc(OCCOc3cccnc3)cc12` ?
170 to 175 °C

Suppose we examine the compound `ON=c1cc(-c2cc3cccn3cn2)oc2ccc(OCCOc3ccncc3)cc12` ; what melting point value has been reported?
198 to 200 °C

// melting point lookup, key: `ON=c1cc(-c2cc3ccccc3cn2)oc2cc(-c3ccccc3)ccc12`
275 to 278 °C

----------
# target or test system: human mGluR4 transiently over-expressed in HEK-293 cells (Homo sapiens)
# Construct: expressed in transfected cells; host or cells: HEK-293 cells, transient co-transfection by electroporation
# test details: Human mGluR4 positive allosteric modulator evaluation using Ca++ functional assay
# Format: cell-based
# measurement conditions: HEK-293 cells co-transfected with hmGluR4 and chimeric G protein; EC10 glutamate; intracellular calcium (Fluo4AM); read-out: mean EC50 of agonist/positive allosteric modulator activity on mGluR4
pEC50: −log10 of the molar value.
For each entry below, report its pEC50 value.

May I ask what pEC50 has been recorded for `ON=c1cc(-c2cc3cccn3cn2)oc2ccc(OCCc3cccc(C(F)(F)F)c3)cc12` ?
> 6.00

Look up pEC50 for this compound: COC1CCCN(CCOc2ccc3oc(-c4cc5cccn5cn4)cc(=NO)c3c2)C1.Cl (centres unmarked) [Example 108, hydrochloride]
> 6.00

# get_value(readout='pEC50', item= `ON=c1cc(-c2cc3cccn3cn2)oc2ccc(OCCOc3ccccc3)cc12` )
> 6.00

So what does the record say about pEC50 for ON=c1cc(-c2cc3ccccc3cn2)oc2cc(CCc3ccccc3)ccc12 (mixture of isomers) ?
> 5.30

I would be grateful if you could share the reported pEC50 for `N#Cc1ccc2c(=NO)cc(-c3cc4ccccc4cn3)oc2c1` .
> 5.30

Data request, read-out pEC50, for `ON=c1cc(-c2cc3cnccc3cn2)oc2ccccc12`
> 6.00

Which measured pEC50 value corresponds to Cl.OC[C@@H]1CCCN1CCOc1ccc2oc(-c3cc4cccn4cn3)cc(=NO)c2c1 [Example 95, hydrochloride] ?
> 5.30

Which pEC50 value belongs to ON=c1cc(-c2cc3ccccc3cn2)oc2ccc(O)cc12 (mixture of isomers) ?
> 5.30

----------
# target or test system: human mGluR4 transiently over-expressed in HEK-293 cells (Homo sapiens)
# test details: Human mGluR4 positive allosteric modulator evaluation using Ca++ functional assay
# measurement conditions: HEK-293 cells co-transfected with hmGluR4 and chimeric G protein; EC10 glutamate; intracellular calcium (Fluo4AM); read-out: mean EC50 of agonist/positive allosteric modulator activity on mGluR4
Give EC50 for every item shown.

// EC50 lookup, key: `CN(C(=O)COc1ccc2oc(-c3cc4cccn4cn3)cc(=NO)c2c1)c1ccc(F)cc1`
< 5000 nM

Endpoint output: EC50 of ON=c1cc(-c2cc3ccccc3cn2)oc2ccc(Br)cc12 (mixture of isomers) . Value?
< 1000 nM

Please report the recorded EC50 for CN1CCN(CCOc2ccc3oc(-c4cc5cccn5cn4)cc(=NO)c3c2)CC1.Cl.Cl [Example 93, dihydrochloride] .
< 5000 nM

Which EC50 is listed for `ON=c1cc(-c2cc3cccn3cn2)oc2ccc(OCCn3ccnc3)cc12` ?
< 1000 nM

Which measured EC50 value corresponds to Cl.ON=c1cc(-c2cc3sccc3cn2)oc2ccc(OCCN3CCC(F)(F)CC3)cc12 [Example 128, hydrochloride] ?
< 1000 nM

Any idea what its EC50 is? The compound is `ON=c1cc(-c2cc3cccn3cn2)oc2cccc(C(F)(F)F)c12`
< 5000 nM

// query EC50 value for entry `CN(C)c1ccc2oc(-c3cc4ccccc4cn3)cc(=NO)c2c1`
< 5000 nM

What measured EC50 goes with COc1cccc(C#Cc2ccc3c(=NO)cc(-c4cc5ccccc5cn4)oc3c2)c1 (mixture of isomers) ?
< 1000 nM
